Molecular target: mouse TRPV3 (Mus musculus, UniProt Q8K424)
Sequence (Q8K424 whole entry): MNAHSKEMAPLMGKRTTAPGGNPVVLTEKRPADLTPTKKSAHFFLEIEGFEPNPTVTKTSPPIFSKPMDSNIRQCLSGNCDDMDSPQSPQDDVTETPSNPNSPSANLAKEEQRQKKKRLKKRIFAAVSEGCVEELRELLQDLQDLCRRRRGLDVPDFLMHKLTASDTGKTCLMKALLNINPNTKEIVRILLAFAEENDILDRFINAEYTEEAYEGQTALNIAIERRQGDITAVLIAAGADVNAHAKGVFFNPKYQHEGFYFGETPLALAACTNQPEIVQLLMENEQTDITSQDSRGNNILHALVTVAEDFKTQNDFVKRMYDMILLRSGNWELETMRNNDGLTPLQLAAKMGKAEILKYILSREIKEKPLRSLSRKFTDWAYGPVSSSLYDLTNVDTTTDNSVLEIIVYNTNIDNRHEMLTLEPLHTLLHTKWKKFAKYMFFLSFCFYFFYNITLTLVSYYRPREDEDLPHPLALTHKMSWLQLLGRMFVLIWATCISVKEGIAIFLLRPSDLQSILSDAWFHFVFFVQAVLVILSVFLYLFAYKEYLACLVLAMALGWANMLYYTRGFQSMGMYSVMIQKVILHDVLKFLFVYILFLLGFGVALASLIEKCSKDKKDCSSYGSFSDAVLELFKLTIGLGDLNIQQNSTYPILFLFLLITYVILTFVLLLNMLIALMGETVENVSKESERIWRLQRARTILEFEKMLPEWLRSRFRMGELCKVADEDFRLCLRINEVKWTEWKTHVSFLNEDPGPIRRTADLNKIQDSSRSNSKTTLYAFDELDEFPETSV
Assay: fluo-4 fluorometric Ca2+ assay, concentration-response, HEK cells expressing mouse TRPV3
Details: HEK cells expressing mouse TRPV3, fluo-4, room temperature, mean ± SD back-transformed from log space, n=5; read-out: EC50 for mouse TRPV3 activation
pEC50: −log10 of the molar value.
METRIC: pEC50

>  <MOLECULE>
COC(=O)C12CN(Cc3ccccc3)CC1(C(=O)OC)CN(Cc1ccccc1)C2 (stereo not shown)

>  <METRIC>
pEC50

>  <RESULT VALUE>
5.70

$$$$

----------
Molecular target: TRPV3 in KU-19-19 cells (Homo sapiens, UniProt Q8NET8)
Construct: host or cells: KU-19-19
Sequence (Q8NET8 1-790): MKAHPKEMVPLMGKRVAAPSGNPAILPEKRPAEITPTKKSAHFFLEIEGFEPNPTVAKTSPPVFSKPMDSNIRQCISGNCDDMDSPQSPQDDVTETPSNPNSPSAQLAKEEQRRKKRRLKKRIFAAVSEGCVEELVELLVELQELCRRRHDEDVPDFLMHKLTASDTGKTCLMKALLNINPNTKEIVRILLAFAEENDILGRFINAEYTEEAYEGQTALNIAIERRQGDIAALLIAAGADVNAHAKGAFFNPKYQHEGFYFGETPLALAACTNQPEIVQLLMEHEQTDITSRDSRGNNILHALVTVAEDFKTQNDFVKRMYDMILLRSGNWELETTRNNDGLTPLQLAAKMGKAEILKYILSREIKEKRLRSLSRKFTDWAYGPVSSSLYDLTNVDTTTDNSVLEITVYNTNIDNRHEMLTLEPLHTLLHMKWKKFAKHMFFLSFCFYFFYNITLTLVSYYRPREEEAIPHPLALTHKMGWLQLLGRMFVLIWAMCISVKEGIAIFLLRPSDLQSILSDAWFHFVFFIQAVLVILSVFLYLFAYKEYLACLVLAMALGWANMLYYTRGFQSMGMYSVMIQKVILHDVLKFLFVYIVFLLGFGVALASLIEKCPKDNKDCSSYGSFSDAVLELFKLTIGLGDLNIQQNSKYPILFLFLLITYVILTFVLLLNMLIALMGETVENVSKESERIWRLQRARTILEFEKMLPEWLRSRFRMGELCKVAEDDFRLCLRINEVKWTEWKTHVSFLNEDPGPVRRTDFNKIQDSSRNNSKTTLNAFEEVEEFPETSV
Experiment: calcium assay concentration-response in KU-19-19 cells
Type: cell-based
Settings: cells not supplemented with cholesterol; read-out: EC50 for AV3-1-induced TRPV3 activation in KU-19-19 cells
pEC50: −log10 of the molar value.
METRIC: pEC50

>  <COMPOUND>
COC(=O)C12CN(Cc3ccccc3)CC1(C(=O)OC)CN(Cc1ccccc1)C2 (stereo not shown) [AV3-1]

>  <METRIC>
pEC50

>  <RESULT VALUE>
4.72

$$$$

----------
Target: TRPV3 in KU-19-19 cells (Homo sapiens, UniProt Q8NET8)
Construct: host or cells: KU-19-19
Sequence (Q8NET8 1-790): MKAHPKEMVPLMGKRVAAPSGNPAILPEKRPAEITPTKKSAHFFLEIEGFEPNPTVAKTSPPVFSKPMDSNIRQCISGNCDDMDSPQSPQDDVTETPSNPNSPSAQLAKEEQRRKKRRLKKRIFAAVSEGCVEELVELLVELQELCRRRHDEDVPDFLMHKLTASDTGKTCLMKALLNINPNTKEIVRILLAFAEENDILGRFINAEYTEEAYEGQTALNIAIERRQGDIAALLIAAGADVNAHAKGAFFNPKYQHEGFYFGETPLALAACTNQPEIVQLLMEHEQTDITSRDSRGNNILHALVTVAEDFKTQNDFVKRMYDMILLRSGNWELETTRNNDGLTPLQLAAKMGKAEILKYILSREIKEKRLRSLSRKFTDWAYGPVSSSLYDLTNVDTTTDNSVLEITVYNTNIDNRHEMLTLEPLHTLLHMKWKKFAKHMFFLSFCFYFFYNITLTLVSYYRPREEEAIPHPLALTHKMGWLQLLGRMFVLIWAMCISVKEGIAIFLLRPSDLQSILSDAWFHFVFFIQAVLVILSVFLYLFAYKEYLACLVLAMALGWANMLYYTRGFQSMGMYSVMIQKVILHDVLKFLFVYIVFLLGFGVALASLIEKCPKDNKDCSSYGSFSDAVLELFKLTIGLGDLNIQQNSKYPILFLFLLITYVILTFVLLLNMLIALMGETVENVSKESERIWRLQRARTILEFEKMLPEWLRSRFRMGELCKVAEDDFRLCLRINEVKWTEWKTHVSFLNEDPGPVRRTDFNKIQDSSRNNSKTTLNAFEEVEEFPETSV
Assay: calcium assay concentration-response in KU-19-19 cells
Format: cell-based
Details: cholesterol supplementation (2.5 mM MβCD-cholesterol); read-out: EC50 for AV3-1-induced TRPV3 activation in KU-19-19 cells
Description: Supplementation of the cellular cholesterol content in KU-19-19 cells was performed by adding cholesterol-loaded methyl-β-cyclodextrin (MβCD) to the cells. Cholesterol was dissolved in ethanol (20 mg/mL) by heating at 65 °C for 15 minutes. […] All fluorometric Ca^2+ assays were performed in HBS buffer at room temperature. […] Fluorescence was excited using a 470-nm light-emitting diode, and emitted light was imaged through a 515-nm–long pass filter with a cooled Zyla 5.5 camera (Andor). […]

>  <COMPOUND>
COC(=O)C12CN(Cc3ccccc3)CC1(C(=O)OC)CN(Cc1ccccc1)C2 (stereo not shown)

>  <UNIT NAME>
µM

>  <EC50>
6.3

$$$$
